Exercise: state measured pIC50 for each of the compounds provided.
test system: HT-29; test: cells; assay type: cell-based; details: Homo sapiens, HT-29, 72 h, read-out: HT-29 viab. IC50
Would you please state pIC50, meaning minus log10 of the concentration in mol/L, as a bare number?

Ask: Fetch value of pIC50 on HT-29 for COCc1c(C(C)C)nc(C(C)C)c(/C=C/[C@@H](O)C[C@@H](O)CC(=O)O)c1-c1ccc(F)cc1 [cerivastatin, reference compound] .
Result: 5.92

Ask: Provide HT-29 pIC50 reading for COc1cc(NCc2ccc3nc(N)nc(N)c3c2C)cc(OC)c1OC [trimetrexate, reference compound] .
Result: 7.68
